tested on: opioid receptors (mu/delta); assay: Opioid receptor ligand selectivity / mixed agonist character
measured.endpoint: opioid receptor ligand selectivity

# smiles.string, measured.endpoint, endpoint.result
data = [
    ("C=CCN1C[C@H](C)N([C@@H](c2cccc(O)c2)c2cccc(C(=O)N(C)c3ccccc3F)c2)C[C@H]1C", "opioid receptor ligand selectivity", "highly selective"),
    ("C=CCN1C[C@H](C)N([C@@H](c2cccc(O)c2)c2cccc(C(=O)N(C)c3ccc(OC)cc3)c2)C[C@H]1C", "opioid receptor ligand selectivity", "highly selective"),
    ("C=CCN1C[C@H](C)N([C@@H](c2cccc(O)c2)c2cccc(C(=O)N(CC)c3ccc(F)cc3)c2)C[C@H]1C", "opioid receptor ligand selectivity", "highly selective"),
    ("C=CCN1C[C@H](C)N([C@@H](c2cccc(O)c2)c2cccc(C(=O)N(C)c3ccccc3)c2)C[C@H]1C", "opioid receptor ligand selectivity", "highly selective"),
    ("C=CCN1C[C@H](C)N([C@@H](c2cccc(O)c2)c2cccc(C(=O)N(C)c3cccc(F)c3)c2)C[C@H]1C", "opioid receptor ligand selectivity", "highly selective"),
    ("C=CCN1C[C@H](C)N([C@@H](c2cccc(O)c2)c2cccc(C(=O)N(CC)CC)c2)C[C@H]1C", "opioid receptor ligand selectivity", "highly selective"),
]

Batch of 3 molecules: report opioid receptor ligand selectivity for each.
1. C=CCN1C[C@H](C)N([C@@H](c2cccc(O)c2)c2cccc(C(=O)N(CC)c3ccccc3)c2)C[C@H]1C
2. C=CCN1C[C@H](C)N([C@@H](c2cccc(O)c2)c2cccc(C(=O)N(C)c3ccc(F)cc3)c2)C[C@H]1C
3. C=CCN1C[C@H](C)N([C@@H](c2cccc(O)c2)c2cccc(C(=O)N(CCC)c3ccccc3)c2)C[C@H]1C

OUT:
1. highly selective
2. highly selective
3. highly selective
